PROTOCOL DETAILS: soluble on expression in E. coli; label from the status in PepcDB or PDB records
PARAMETER MEASURED: soluble on expression in E. coli

1) PKVSVIMTSYNKSDYVAKSISSILSQTFSDFELFIMDDNSNEETLNVIRPFLNDNRVRFYQSDISGVKERTEKTRYAALINQAIEMAEGEYITYATDDNIYMPDRLLKMVRELDTHPEKAVIYSASKTYHLNENRDIVKETVRPAAQVTWNAPCAIDHCSVMHRYSVLEKVKEKFGSYWDESPAFYRIGDARFFWRVNHFYPFYPLDEELDLNYITDQSIHFQLFELEKNEFVRNLPPQRNCRELRESLKKLGMG; soluble
2) MKTIGLIGGMSWESTTSYYQLINETIKKELGGLHSAKILLYSVDFAEIEHYQASDDWAKSAEVLSQIAQKLEQAGADFIVICTNTMHKVAPQIQKQIAIPILHIAQATAEAILENGIQKV; not soluble
3) MGSDKIHHHHHHVPNFLPINTILVPQGAEYKAVCRGLNGVTGSIPTVVAIPVGMKPLLKYLHQGQFLAPKSRVLIMGICGSLSDRYRVGDIVLYQDCIYQGKLLECDRTFTAQLHSSLSEKVSLVKSLTSDRMIWSAAEKLHLGETLAADVVDMEGFTALEFFNVGGVAVTMLRVVSDDCQHDIPDLTSAINSDGSLNPFSLAMAMLRQPLAATRLIRGSLTALKVLEQVTNMLFSGNRPE; not soluble
4) MSLEAKKSKAIVFSGVNQIELREVTLKPVSSTDVLVETWWSSISTGTEKMALNGLIPSPPFIFPFIPGYETVGRIVEAGDHVNQGLIGKFAYVAGSFGYEDVNAAFGGASQFIVCPVESLTVLDGIANPQCGIALPLGATALHIVDLAEVKNRKVLVLGQGAVGILAAELAKRFGASLVAVTEPHQRRLDISTSDIKVNPEKQDVSVALAGHEFDVLIDSTGIMSAIETGLRFLKFHGKVIFGGYYQRMNIDYSQAFNKELSFIAARQWAKGDLHRVRELIAAGKINAEKIFTHQCTVDDNLMEAYMQAFSDSDCLKMIIHWKHGNEAGEHFPTCNTANEGHHHHHH; soluble
5) MEDKPTILIMGGSLGLGNIEDIVEMVCHICDESYQIIVVTGKNKTLKKSLEERNFGRKVVVFGFISFIDKLMAISDILITKPGGLTCAEALSCKLPMILISPIPGQEERNTFYLINNGAAAYVKNIESFDIVFNQIINNPQRLEHMKLACSFLAKPLEHHHHHH; not soluble
6) MKEENVGDFTLHYGVFEEVEPEELRNLADMLRQRTKKDVVFIASRKGDKINFVIGVSKEISDKVNAKEVIREVGKVLKGGGGGRADLAQGGGKAPDKFPEAVKLLKEILSG; soluble
7) MGSDKIHHHHHHMPLPRGSSLVRIPGNIPVGLDMKERLAYFEYDPLVSGQRAYAVAALLPQGFTRTLLPACVGSSGEALLPLLGYAAVGLKEGKIYVAAVQSDEHRKWHPHYYNTERLPAKINRMLKKYPGNMILHQLARCSLEYGCFTAQNIFYQRWEGGIPSMKACNAACIACISEDHCGTASPQNRLDFAPTVQEIVEVASEHLLRARDAIISFGQGCEGEPALNGKRLSQAIRRIRDLCAQGTINMNTNAGYCEGVKLMTDAGMDSMRVTIFSAIEENYMTYHCPQDYSLADVEYSITYAREHGVKISLNLLTFPGFTDRMEEVEALLEFVRKNQVDMIQFRNLNIDPEFLMRIFPGKSPVLGISNFVKLLESELPGVRIGSYTHPVHR; not soluble
8) MRTVVVIPTYNERDTIERLINDVLAQDKDIHVLVVDDNSPDGTGEIVDRLSEGKGRVHVLHRPGKMGLGSAYRQGFAAALAMDADFIVEMDADYSHDPATLPRFLEAMEGCDLVIGSRYLNGISVVNWPLRRLMLSYFANWYTRLITGLRIMDCTSGFKCFRRRVIESIDMSTIRSDGYSFQIEMNYRCVEKGFQVREIPIIFIDRRSGSSKMSKKIVREAVFMVWKLKLGSVFGALFRLEHHHHHH; not soluble
9) MLKSVQGLWKDFFGIRDDGRKREYGSLDEVRKRSALRSRRKQMRPTGKSVLKRPRKVTDRKTEEKIRTNRRKTPKRRLTKIFQTIRDVFSNDNENMSKMQNVCGDMTRILKKRSQGRPSYMDTDTAKSRILRSDAFKRKISELKYNKQRISELRSGSSDGSSGKDRNQSLYLDREILLQRQIKKRDEKIKALESKLQSLQEALNYSNEKYRILEDLLDSSNIHPSYTKSRRTMSNLARENDEIKPLKIDLSPSPIRRTNSLFTSSPMKTYNRDGNIPEMQPLQENISPACPTPPYRSRETEKEDETLSPISVDFSSYLS; soluble
10) MSASLVETVDIEAPVAVTWALWSDVSRWPSFLSHVRLVEPLDERRFAWQLSLPGADKNFVAELTEVIPGDRIAWQTTEGVHHAGVVTFHRLSDTSSRVTLQIEYDPKGFVEHIGALTNLDSTLANYDLGEFQKLAETAAAGLEHHHHHH; not soluble
11) GLCDGHMHIESGMLTPAEFAAAVIPHGTTTMFTDPHEIANVLGLAGVRMMHDEALMQPVNIFTQMPSCAPSAPGLETTGYEITPEDVAEAMTWPGIIGLGEMMNFPGVTNADPKMLAEIAATQRAGKTVGGHYASPDLGPAFAAYVAGGPADDHEGTCEADAIARVRQGMRSMMRLGSAWYDVETQITAVTEKGLDPRNFILCTDDCHSATLVNDGHMNRVVRHAIACGCDPLIALQMATINTATHFGLERELGSTAPGRRADVILTSDLRDLPIELVIARGQVVAENGKIAVDCPHYDWPD; not soluble
12) MSLKDSGILFVDDDILFLALLRECFMQRGIVIQCAENGEDALQMIQQRPFALLLTDLQMPGMDGLELAGKARKLMPDLPIVLCTGAVTPEVCALAEEIGIAQVVRKPIRFSELFAIVGNIVSLQQTEGHHHHHH; soluble

###

PROTOCOL DETAILS: soluble on expression in E. coli; label from the status in PepcDB or PDB records
PARAMETER MEASURED: soluble on expression in E. coli

1) MGHHHHHHSHMSLFSGTIQNLENALSRADIKQKVITNNIANIDTPNYKAKKVSFQNLLDQESSRLEAIKTDYRHVDFSDTDSNYSIVASGDTSYQQNGNNVDVDKEMTELAQNQINYQALVERMNGKFNSLKTVLTGGK; not soluble
2) MKKFKNILFATQGLPGHSDALEQAIQLAYNNRGQLAGLIAFPAFPADLQRYQEPYEQSYLNTLMETVEACRSQHHIHKDEVPFPLMVEHSEQPAVAIIKSALNHHIDLLIKEAEPMTHSQQGFKALDMTLLRKCPCPVWLHRPLAKPKANRRVAVAIDPITTTEQQKALALRLLELSRSIANTCDSRLHIVSCWEYYLENYLHDQVWIQVEQQQIAEEIAQAKIRHEQALRQLIDESGITGELVIHHLHGKPDELIPEWVTQENIDILVMGTLARTGIAGFVIGNTAENIVQSIECSLVALKPEGFVSPIKNE; soluble
3) MAHHHHHHMKQSKLVSRPSKTKKPKERKDRREDERYQREMDALIAREVARENVSMRSDTHKPQPKLLEEVQKDTSRRPKTPTSLSTAAVEKQAKIDKESGFQPVVNQRKERQQQQHQQQQTSAPKPMLVNEALERKLNHFFSNLNRKEKLTRLSQPEENPTASKGATIIVRKDIANARSWQQQQQ; soluble
4) MTTRKPFIICDFDGTITMNDNIINIMKTFAPPEWMALKDGVLSKTLSIKEGVGRMFGLLPSSLKEEITSFVLEDAKIREGFREFVAFINEHEIPFYVISGGMDFFVYPLLEGIVEKDRIYCNHASFDNDYIHIDWPHSCKGTCSNQCGCCKPSVIHELSEPNQYIIMIGDSVTDVEAAKLSDLCFARDYLLNECREQNLNHLPYQDFYEIRKEIENVKEVQEWLQNKNAGESSLKLEHHHHHH; soluble
5) MTKSQKQTKQYLRIFDQQMSLYEHYARKNSLQSKSLFILLWLYYNPQGITQKQIVEKTYSTKQVVNATLKRWNEKNYIVFLKSQTDRREKKIILSSQGQEYAASIIAPLEKMEEAAFNSLSIQEQQTMIQLTGHYYQALLSQMQLYFVQGEGEKATKEKL; not soluble
6) PPFTGDERASIQRACEAGVEKIIVPATEAAHFPRVLALAARFPSLYAALGLHPIVIERHADDDSDKLQQALAQQQNVVAVGEIGLDLYRDDPQFARQERFLDAQLQLAKRYDLPVILHSRRTHDKLAMHLKRQDLPRTGVVHGFAGSLQQAERFVRLGYKIGVGGTITYPRASKTRDVMARLPLDALLLETDAPDMPLKGFQGQPNRPEQAARVFDALCELRPE; not soluble
7) MNKQLTTIGIMASLFATSSFATDWTQIEKEAQGQTVYFHAWGGSQEINHYLQWANKELQSKYQVTLKHVKVSDISETIPRLIAEKAADKNTNGSVDMVWINGENFKSMKDNQLLFGPFTENLPSWKYVDKMLPIDVDFSEPTDGLEAPWGVGQLVFIHDSENLTNPPHSFAEMLSYAQKKPNSLSYPRPPEFHGTSVLKSMLIELTNNNPALQKPVSESDFNAVTAPLWDYLEKFHKVAWRGGKQFPAGTSETIQLLDDGQLDLAVTFNPNAVYSAQANGNLANTTKAYAMDSGALSNIHFLAIPWNAKASAGAQVAINFLLSPEAQSRKGDLNVWGDPSVLSSKYLTGSAKNTQQFKSVSEPHPSWQAAIEKEWLKRFGS; soluble
